Tested on: Lefty1
Experiment: Lefty1 protein binding to printed compounds – biochemical, small-molecule microarray, 635/667 nm fluorescence, primary screen (AID 1139)
Settings: fluorescence 635/667, higher = more signal
Please note: satisfied applies when composite z-score is 0.6 or greater, and not satisfied applies otherwise.

| SMILES INPUT | LABEL VALUE |
| --- | --- |
| C=C(COC)C(=O)CC[C@@H](OC(=O)c1ccccc1-c1ccccc1C(=O)O)c1ccc(CO)o1 | satisfied |

query: Evaluate COC(=O)[C@@]1(Cc2ccc(F)cc2)[C@H]2c3cc(C(=O)N4CCCC4)n(Cc4ccc(Cl)c(C(F)(F)F)c4)c3C[C@H]2CN1C(=O)c1ccccc1 : composite z-score at minimum 0.6?
result: not satisfied

query: Evaluate C=C(CCCC)C(=O)CC[C@@H](OC(=O)c1ccccc1-c1ccccc1C(=O)O)c1ccc(CO)o1 : composite z-score at minimum 0.6?
result: satisfied

query: Evaluate CCCCC(=O)N(Cc1ccccc1F)[C@@H]1CC(C(=O)NCCO)=C[C@H](Oc2c(I)cc(CO)cc2OC)[C@H]1O : composite z-score at minimum 0.6?
result: satisfied

query: Evaluate COc1ccc([Si](C)(C)[C@@H]2[C@@H](CCO)O[C@]3(C(=O)N(Cc4ccc(N5C(=O)c6cccc7cccc5c67)cc4)c4ccccc43)[C@H]2C)cc1 : composite z-score at minimum 0.6?
result: not satisfied

query: Evaluate O=C1O[C@@H](c2ccccc2)[C@@H](c2ccccc2)N2[C@@H](c3ccc(O)cc3)[C@]3(C(=O)Nc4ccc(C#CCCO)cc43)[C@@H](C(=O)N3CCCCCCC3)[C@H]12 : composite z-score at minimum 0.6?
result: satisfied

---

Target: Dihydroorotate dehydrogenase (quinone), mitochondrial (Plasmodium falciparum (isolate 3D7))
Test: inhibition of P. falciparum DHODH – biochemical, C-terminal His tag, absorbance 600 nm, primary screen (AID 1175);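 also: recombinant parasite enzyme with a five histidine tag at its C terminus; test concentration not given here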
Settings: PfDHODH enzyme, DCIP absorbance 600 nm; higher = more signal, called active from +8 up or from −8 down
MEASURED ENDPOINT: composite z-score
Answers are plain numbers.

Examples with their reported composite z-score follow.
| SMILES INPUT | MEASURED ENDPOINT | VALUE MEASURED |
| --- | --- | --- |
| COC(=O)[C@@]1(Cc2ccc(OC)cc2)[C@H]2c3cc(C(=O)N(C)C)n(Cc4ccc(OC)c(OC)c4)c3C[C@H]2CN1C(=O)c1ccccc1 | composite z-score | 0.697 |
| O=C1C[C@@](C(=O)O)(c2ccc([N+](=O)[O-])cc2)[C@@H](c2ccc(CO)cc2I)N1CC12CC3CC(CC(C3)C1)C2 | composite z-score | -1.49 |
| CCCNC(=O)[C@@]1(C)c2ccccc2C(=O)N(C(C)C)[C@H]1c1ccc(CO)cc1 | composite z-score | -0.44 |

Batch lookup, composite z-score per entry.
1. COCCOC(=O)N1C(=O)[C@@]2(c3cc(C#Cc4ccc(OC)cc4)ccc31)[C@H](C(N)=O)[C@H]1C(=O)O[C@H](c3ccccc3)[C@H](c3ccccc3)N1[C@@H]2c1ccc(O)cc1
2. NC(=O)NCC#Cc1ccc2c(c1)[C@]1(C(=O)N2)[C@H](c2ccccc2OCCO)N2[C@H](c3ccccc3)[C@H](c3ccccc3)OC(=O)[C@H]2[C@@H]1C(=O)N1CCCCCCC1
3. C=CCNC(=O)[C@H]1[C@@H]2C(=O)O[C@@H](c3ccccc3)[C@@H](c3ccccc3)N2[C@@H](c2ccc(OCCO)cc2)[C@]12C(=O)N(C(=O)OCCOC)c1ccc(C#CC3(O)CCCCCC3)cc12

result:
1. -0.265
2. 0.417
3. -1.08
